# Test system: 362531-283-R-J2-PDC complex spheroid viability;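 further: spheroids exposed to the agents for 7 days before readout; luminescence viability as percent of DMSO vehicle control wells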
# protocol.description: Anticancer human tumor 362531-283-R-J2-PDC patient-derived colon adenocarcinoma cell line growth inhibition [RAS]
# measurement.setup: second compound 0.3 µM; first compound 1 µM; active compounds read low
// reported viability, T/C per item
measure: viability, T/C (%)

compound	recorded.result
CC1(O)CCCC1n1c(=O)c(C(F)F)cc2cnc(NC3CCN(S(C)(=O)=O)CC3)nc21 (stereo not drawn) + CCn1c(-c2cc(N3CCN(C)CC3)cnc2C(C)OC)c2c3cc(ccc31)-c1csc(n1)CC(NC(=O)C1CC1C)C(=O)N1CCCC(N1)C(=O)OCC(C)(C)C2	55.8
C[C@@H](NC(=O)c1ncnc(N)c1Cl)c1ncc(C(=O)Nc2cc(C(F)(F)F)c(Cl)cn2)s1 + CCn1c(-c2cccnc2C(C)OC)c2c3cc(ccc31)N1CCOC(CC(NC(=O)C(C(C)C)N(C)C(=O)C3(F)CCN(C(=O)C#CC(C)(C)N(C)C)CC3)C(=O)N3CCCC(N3)C(=O)OCC(C)(C)C2)C1	87.1
CCC(CC)c1cc(NC2CCC(N)C2)n2nccc2n1 (stereo not drawn) + CCn1c(-c2cccnc2C(C)OC)c2c3cc(ccc31)N1CCOC(CC(NC(=O)C(C(C)C)N(C)C(=O)C3(F)CCN(C(=O)C#CC(C)(C)N(C)C)CC3)C(=O)N3CCCC(N3)C(=O)OCC(C)(C)C2)C1	91.8
CC(C)NCC(C(=O)N1CCN(c2ncnc3c2C(C)CC3O)CC1)c1ccc(Cl)cc1 (stereo not drawn) + CCn1c(-c2cccnc2C(C)OC)c2c3cc(ccc31)N1CCOC(CC(NC(=O)C(C(C)C)N(C)C(=O)C3(F)CCN(C(=O)C#CC(C)(C)N(C)C)CC3)C(=O)N3CCCC(N3)C(=O)OCC(C)(C)C2)C1	91.9
Cc1nc(N2CCC3(CC2)COC(C)C3N)c(CO)nc1Sc1ccnc(N)c1Cl (stereo not drawn) + CCn1c(-c2cc(N3CCN(C)CC3)cnc2C(C)OC)c2c3cc(ccc31)-c1csc(n1)CC(NC(=O)C1CC1C)C(=O)N1CCCC(N1)C(=O)OCC(C)(C)C2	6.49
CC(Nc1ccc2c(c1)OCCn1cc(N3C(=O)OCC3C(F)F)nc1-2)C(N)=O (stereo not drawn) + CCn1c(-c2cccnc2C(C)OC)c2c3cc(ccc31)N1CCOC(CC(NC(=O)C(C(C)C)N(C)C(=O)C3(F)CCN(C(=O)C#CC(C)(C)N(C)C)CC3)C(=O)N3CCCC(N3)C(=O)OCC(C)(C)C2)C1	56.9
NC1c2ccccc2OC12CCN(c1cnc3c(N4CCCc5ncccc54)n[nH]c3n1)CC2 (stereo not drawn) + CCn1c(-c2cc(N3CCN(C)CC3)cnc2C(C)OC)c2c3cc(ccc31)-c1csc(n1)CC(NC(=O)C1CC1C)C(=O)N1CCCC(N1)C(=O)OCC(C)(C)C2	4.89
CC(C)NCC(C(=O)N1CCN(c2ncnc3c2C(C)CC3O)CC1)c1ccc(Cl)cc1 (stereo not drawn) + CCn1c(-c2cc(N3CCN(C)CC3)cnc2C(C)OC)c2c3cc(ccc31)-c1csc(n1)CC(NC(=O)C1CC1C)C(=O)N1CCCC(N1)C(=O)OCC(C)(C)C2	41.6

Cited source: PubChem BioAssay AID2060909
